Quick list: inhibition at 100 µM per entry.
# target-desc: Endothelin-Converting Enzyme (Sus scrofa, UniProt A0A8W4FBH0)
# Construct: 1.0% Triton X-100 was added to solubilize enzyme activity; from tissue; host or cells: pig lung, solubilised 100,000×G membrane fraction
# Sequence (A0A8W4FBH0 1-751): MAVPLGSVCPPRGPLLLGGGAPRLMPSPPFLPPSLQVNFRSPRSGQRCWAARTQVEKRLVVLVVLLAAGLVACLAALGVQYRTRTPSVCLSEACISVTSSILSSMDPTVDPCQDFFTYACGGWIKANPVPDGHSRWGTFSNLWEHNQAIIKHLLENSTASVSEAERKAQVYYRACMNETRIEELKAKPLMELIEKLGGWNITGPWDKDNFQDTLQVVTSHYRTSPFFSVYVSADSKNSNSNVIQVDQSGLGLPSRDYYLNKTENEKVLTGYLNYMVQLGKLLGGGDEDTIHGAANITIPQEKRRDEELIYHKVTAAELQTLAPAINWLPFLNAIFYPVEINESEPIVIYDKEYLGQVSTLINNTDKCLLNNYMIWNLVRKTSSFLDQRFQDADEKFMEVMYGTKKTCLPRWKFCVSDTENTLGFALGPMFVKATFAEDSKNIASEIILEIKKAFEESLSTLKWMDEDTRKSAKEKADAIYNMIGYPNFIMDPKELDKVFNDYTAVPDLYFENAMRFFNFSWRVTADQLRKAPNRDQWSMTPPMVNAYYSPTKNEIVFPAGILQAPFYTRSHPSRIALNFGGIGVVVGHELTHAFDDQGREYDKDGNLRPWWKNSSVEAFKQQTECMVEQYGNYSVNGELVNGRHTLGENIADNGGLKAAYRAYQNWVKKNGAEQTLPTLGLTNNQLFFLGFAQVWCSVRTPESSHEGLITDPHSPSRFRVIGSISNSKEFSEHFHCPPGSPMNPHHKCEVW
# experimental-protocol: Inhibition effect of various protease inhibitors on endothelin-converting enzyme
# Type: biochemical, pig
# experimental-context: Concentration 100 μM; read-out: Inhibiting Ratio (%)
Where a SMILES comes first, the peptide text is derived from it. [ ]: non-standard residue; d: D form. The star is where a group is joined. Sta = CC(C)C[C@H](N)[C@@H](O)CC(=O)O; Isovaleryl = CC(C)CC(=O)*
Give the number; % is assumed, so skip it.

compound: CC(C)C[C@H](NC(=O)[C@@H](NC(=O)N[C@@H](Cc1ccccc1)C(=O)O)[C@@H]1CCN=C(N)N1)C(=O)N[C@H](C=O)Cc1ccccc1 [Chymostatin]
inhibition at 100 µM [%]: 2
--
compound: CC(C)CC(=O)N[C@H](C(=O)N[C@H](C(=O)N[C@@H](CC(C)C)[C@@H](O)CC(=O)N[C@@H](C)C(=O)N[C@@H](CC(C)C)[C@@H](O)CC(=O)O)C(C)C)C(C)C [Pepstatin] (Isovaleryl-VV[Sta]A[Sta]-OH)
inhibition at 100 µM [%]: 20
--
compound: CC(=O)N[C@@H](CC(C)C)C(=O)N[C@@H](CC(C)C)C(=O)N[C@H](C=O)CCCNC(=N)N [Leupeptin]
inhibition at 100 µM [%]: 23
--
compound: CC(C)C[C@H](NP(=O)(O)O[C@@H]1O[C@@H](C)[C@H](O)[C@@H](O)[C@H]1O)C(=O)N[C@@H](Cc1c[nH]c2ccccc12)C(=O)O [Phosphoramidone]
inhibition at 100 µM [%]: 70

# evaluate next
Prompt: Entry under review: CC(C)C[C@H](NC(=O)[C@H]1O[C@@H]1C(=O)O)C(=O)NCCCCN=C(N)N [Example E-64] . Reported inhibition at 100 µM?
Completion: 9
